Test system: VDR homodimer (NR concentration 270 nM)
Experiment: PBM binding z-score (relative to random genomic background probes); higher = stronger binding; sequences stand for … in GC…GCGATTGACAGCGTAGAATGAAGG
Attribute Measured: PBM binding z-score

# example entries with known answers
INSERT INTO assay_data (biosequence, value_observed) VALUES
  ('AATACATGGTCACTAGGCCAGAGTAGGTACGAAT', 0.15),
  ('GCTAGTTGGTCAGTAAAAGGTCACATACCGGTCG', 1.74),
  ('CCTAGCAGGCCAGGGTCTCTCAAGCATTTCGCTT', -0.871),
  ('CCTCGGAGGACAGAAGGGCAGAGCTGTCCGCTTT', -0.623),
  ('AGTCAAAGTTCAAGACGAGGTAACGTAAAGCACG', 2.85);

// next entry
Item `ACTTACGGGTTAACGAGGTTATAGCACGCGTATA` : provide PBM binding z-score
1.96

###

Test system: PXR homodimer (NR concentration 270 nM)
Experiment: PBM binding z-score (relative to random genomic background probes); higher = stronger binding; sequences stand for … in GC…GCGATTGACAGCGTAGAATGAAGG
We use 0.6 as the dividing line for PBM binding z-score: on or above the line is true, below is false.

Use these answered entries as a reference point.
INSERT INTO measurements (biosequence, class_label) VALUES
  ('AGAATGAGGTTATAAAGATCAGGGAATTGCGGTC', 'false'),
  ('ACTCAAAGTTCAGGACGAGGTAACGTAAAGCACG', 'true'),
  ('ACTAGTTGGTCAGCTGAGGTCAAACACAATTCGG', 'true'),
  ('ATATGTAGGTTGTCGGGTCATTCAGTTTGCGCAT', 'true'),
  ('GATACAGGGTCAAGGCCACAGTACGCGTATTGAT', 'false');

Next:
In plain terms: is recorded PBM binding z-score at least 0.6 for `GCTATTAGTTGAAAGGGTAACCGAATGATTCTCG` ?
false

###

Tested on: PPARg:RXRa (NR concentration 180 nM, RXRa partner concentration 90 nM)
Experiment: PBM binding z-score (relative to random genomic background probes); higher = stronger binding; sequences stand for … in GC…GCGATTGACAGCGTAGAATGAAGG
Below, each of the sequences is paired with its reported PBM binding z-score value.
Would you mind answering with just the numeric figure?

Answered examples (5):
INSERT INTO assay_data (biosequence, value_observed) VALUES
  ('CCAGACAGCTGAAAGGTAACTCAGTCTGGTACGC', 0.377),
  ('CCAGACGGGTGAAAGGTAACTCAGTCTGGTACGC', 4.88),
  ('ACTAGGAGGCCAAGGGTCACTCAAGATTAGTCCG', 8.49),
  ('CCTACTGCGCCAAGGTCATTGATCAGTCAAAGCA', 0.507),
  ('TCATATCGGTAAAAGGTGAAAGTCGGTGTGGTAA', 6.69);

Report PBM binding z-score, nothing else, for this sequence: `TAGCCTAGGTCAGATCGGGCCAGAATACGCTATA`
0.869

Annotate the sequence `AGAATGAGGTTATTAATATCAGGGAATTGCGGTC` with its measured PBM binding z-score.
1.54

Indicate its recorded PBM binding z-score; the sequence in question is `AGAATGAGGTAATACGTAGATCAGGGAAGAAAGT`
1.04

###

Tested on: LXRa homodimer (NR concentration 270 nM)
Experiment: PBM binding z-score (relative to random genomic background probes); higher = stronger binding; sequences stand for … in GC…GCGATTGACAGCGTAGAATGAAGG
Attribute Measured: PBM binding z-score
Just the number, please, no unit attached.

INSERT INTO results (biosequence, attribute_measured, value_observed) VALUES
  ('GATACAGGGTCAACGCCAGAGTACGCGTATTGAT', 'PBM binding z-score', -0.128),
  ('GCTGCTAGGCCAGGTTGGTCAGCTAACGGGTACG', 'PBM binding z-score', -0.776),
  ('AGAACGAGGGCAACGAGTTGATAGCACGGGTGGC', 'PBM binding z-score', -0.499);

Give the value of PBM binding z-score reported for the following: `TCTGCTAGGTTAGTTGGTCAGCTAACGAGCTGCC`
-0.882

Report measured PBM binding z-score; entry is `CGTCAAAGTACAACTAAGGTAACGTAAAGCACGC`
0.142

Please indicate PBM binding z-score recorded for `CCTAGCAGGCCAATCTGGGTCACCCAAGGCTTGA`
-0.385

Return reported PBM binding z-score. Input sequence: `TCATATAGGTAAACAGGTTAAAGTCCGTAAGTTA`
0.749

Given `TCACGGAGGACACGAAAGGTCAGAGCTCGACATC` , respond with its PBM binding z-score.
3.14

Look up PBM binding z-score of `TCTCGGAGGACACGAAGGTCAGAACTTTCCAGAG` and report it.
0.605

###

System: LXRa homodimer (NR concentration 270 nM)
Experiment: PBM binding z-score (relative to random genomic background probes); higher = stronger binding; sequences stand for … in GC…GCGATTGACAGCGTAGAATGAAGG
Decide using PBM binding z-score: a value greater than or equal to 0.7 is Yes, a smaller one is No.

# example entries with known answers
INSERT INTO measurements (biosequence, class_label) VALUES
  ('TCTTGTAGGTCAAGCAGGTTAAGAAAGCCTGAGT', 'Yes'),
  ('GCGACTGGAGCAAAGCAGGTTACCATAAGGTTGG', 'No'),
  ('TCGCGTAGGTTAGGGGCATTCAGAATGGCGTCGA', 'No'),
  ('CGAACTAGGTCAAGGTCAGTGAATCTCCGCACGC', 'Yes');

Read the next record carefully.
Reported PBM binding z-score at or above 0.7? `CCTTACGGGTCAAGGTCATAGCACGGGTGGTACG`
Yes

###

Tested on: PPARg:RXRa (NR concentration 180 nM, RXRa partner concentration 90 nM)
Experiment: PBM binding z-score (relative to random genomic background probes); higher = stronger binding; sequences stand for … in GC…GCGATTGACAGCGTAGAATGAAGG
Entry class follows PBM binding z-score: low (below 0.7), middle (0.7 to below 4), high (4 or more)

Take a look at these entries with their results.
INSERT INTO results (biosequence, class_label) VALUES
  ('CATCGGAGGACAGAAGGTCAGAGCTGTCCGCTTT', 'low'),
  ('TGAATGAGGTTAAAGAACAGGGAACGTGGCGTCG', 'middle'),
  ('TCTTGTAGATCAAGCAGGTTAAGAACGCCTGAGT', 'low'),
  ('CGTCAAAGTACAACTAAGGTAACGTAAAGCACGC', 'middle'),
  ('CTACCAAGGTGAACAAGGGCGTTGATTACTATTC', 'low'),
  ('ACAGACAGGTGATCAAGGTAACTCAGGCTATCAT', 'low'),
  ('AGTCAAAGTTCACTAGGGAACGTAAGATTCAGCT', 'high'),
  ('AATACAGGGTCACTACGCCAGAGTAGGTACGAAT', 'high'),
  ('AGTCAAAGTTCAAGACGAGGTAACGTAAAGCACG', 'high'),
  ('CGAACGAGGGCATGAGTTGATCGCAAATGCCGAT', 'middle');

Quick check: band for `ATCTCTAGGTGAAGATAGTTCAGTGAATGCAAAT`
middle

Lab log: `CGTCAAAGTTCAACTAAGGTAACGAAAAGCACGC` — assign PBM binding z-score category
high

Which class does `CGTCAAAGTTCAATGTAACGTAACAGAAAGCAGC` fall in?
middle

###

The following sequences are listed with their measured PBM binding z-score values.
System: PPARg:RXRa (NR concentration 180 nM, RXRa partner concentration 90 nM)
Experiment: PBM binding z-score (relative to random genomic background probes); higher = stronger binding; sequences stand for … in GC…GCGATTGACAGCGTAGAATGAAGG
Please give only the number in your answer, with no unit.

INSERT INTO results (biosequence, value_observed) VALUES
  ('CCAGACAGGTGAAAGGTAACTAAGTCTGGTACGC', 5.33),
  ('TCTGCTAGGTCAACGATTGTCAGCTAATCTGCTA', 2.43),
  ('CCTATTAGTTGACCATAGGGGCAACCGAAGCTCG', 0.395);

Look up and state reported PBM binding z-score for `GCCTGTAGATCAAGGTTAAGAAAGACTAAGCTAA`
0.434

Supply PBM binding z-score value. Item: `AGAACGAGGGCACGCTGAGTTCATAGCAGAGTAG`
2.52

Answer with the recorded PBM binding z-score of `GCTGCTAGGTCAGTTTGGTCAGCTAACGGGTACG` only.
0.183
